Assign inhibition to each entry below.
- Assay summary: growth suppression of yeast trafficking mutant, preliminary HTS, modulators of trafficking downstream of Golgi apparatus project, 1536-format plate, OD 615 nm (AID 637)
- Test parameters: yeast transport mutant growth, absorbance 615 nm, 18 h; active compounds read high
Active and inactive are the calls of the source. Rule as the data show it: active = inhibition above about 30%; inactive = the rest.

**Query** Using the record for c1ccc(Cn2nnnc2C(c2cccs2)N2CCSCC2)cc1 (configuration not stated) , state its measured inhibition.
**Result** -4.35% (inactive)

**Query** Using the record for Cc1cc(S(=O)(=O)n2cnc3ccccc32)c(C)cc1Cl , state its measured inhibition.
**Result** -3.97% (inactive)

**Query** Using the record for Cc1cc(/C=c2/sc3nc4ccccc4n3c2=O)c(C)n1-c1ccccn1 , state its measured inhibition.
**Result** -0.48% (inactive)

**Query** Using the record for CCOc1ccc(-c2c(C#N)c(N)nc3c2c(=O)n(C)c(=O)n3C)cc1OC , state its measured inhibition.
**Result** 6.77% (inactive)

**Query** Using the record for COCCn1nnnc1SCC(=O)N1CCCCC1 , state its measured inhibition.
**Result** 4.18% (inactive)

**Query** Using the record for C=CCOC(=O)CC(NC(=O)c1ccccc1)c1ccccc1 (configuration not stated) , state its measured inhibition.
**Result** -5.45% (inactive)

**Query** Using the record for Cn1c(=O)c(NC(=O)c2ccccc2)c2n(c1=S)CCCCC2 , state its measured inhibition.
**Result** 3.65% (inactive)

**Query** Using the record for CCS(=O)(=O)c1ccc(S(=O)(=O)CC)s1 , state its measured inhibition.
**Result** -1.59% (inactive)

**Query** Using the record for c1coc(CN2CN=C(Nc3nc4ccccc4s3)NC2)c1 , state its measured inhibition.
**Result** -4.18% (inactive)

**Query** Using the record for N#CCCn1cnc2ccccc21 , state its measured inhibition.
**Result** -3.97% (inactive)

**Query** Using the record for O=C(O)CC1Sc2nc3ccccc3n2C1=O (configuration not stated) , state its measured inhibition.
**Result** -5.27% (inactive)

**Query** Using the record for CCOC(=O)CSc1nc2ccccc2c(=O)n1NC(=O)c1ccccc1 , state its measured inhibition.
**Result** -1.75% (inactive)
